Tested on: U251 CNS
Experimental details: NCI-60 one-dose screen, 48 h (100 = growth as untreated, 0 = no growth, -100 = all killed)
Assay setup: 10 µM unless noted
This is part of a sample that, as a whole, favours compounds with a hit. Of some 83,000 tested, about 20% had one in any assay.
Parameter measured: growth (%)
Answers are plain numbers, in %.

The cases that follow already have their growth on record.
> print(dat)
                                smiles.data  measured.target  result.unit  reported.result
1        Cc1c2c(cn1Cc1ccccc1)CCc1cn(C)nc1-2         U251 CNS            %             97.2
2  Cc1[nH]c(-c2nc3ccccc3[nH]2)c(C)c1C(=O)N1CCOCC1         U251 CNS            %              100

Consider the record given below.
Please look up its growth: `Cc1ccccc1NC(=O)CN(C)C` 104

// data source = PubChem BioAssay (NCI)
